Where do the numbers come from? From patent US20100081612A1.

- measured.on: T1, wild-type human PTHR (human, UniProt Q03431 27-593)
- T1 construct: whole, on cells; also called PTHR-WT; intact PTHR
- T1 sequence (looked up): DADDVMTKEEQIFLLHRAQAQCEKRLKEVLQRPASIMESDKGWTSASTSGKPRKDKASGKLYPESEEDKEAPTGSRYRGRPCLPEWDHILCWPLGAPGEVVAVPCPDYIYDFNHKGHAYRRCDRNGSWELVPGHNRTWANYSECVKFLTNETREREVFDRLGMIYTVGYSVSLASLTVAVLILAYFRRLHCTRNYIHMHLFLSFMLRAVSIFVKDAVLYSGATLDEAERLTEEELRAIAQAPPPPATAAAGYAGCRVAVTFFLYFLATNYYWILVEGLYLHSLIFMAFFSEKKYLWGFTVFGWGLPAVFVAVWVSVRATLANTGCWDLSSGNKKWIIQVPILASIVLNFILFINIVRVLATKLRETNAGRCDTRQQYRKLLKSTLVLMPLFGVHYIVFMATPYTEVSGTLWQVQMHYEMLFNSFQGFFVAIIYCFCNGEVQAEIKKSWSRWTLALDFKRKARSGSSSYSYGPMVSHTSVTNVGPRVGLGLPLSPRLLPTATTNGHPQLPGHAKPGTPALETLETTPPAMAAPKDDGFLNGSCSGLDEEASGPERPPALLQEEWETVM
- assay.explanation: competition binding, HKRK-B7 cells, 125I-PTH(1-34) tracer
Where no end group is shown, it is not given here.
property.name: IC50 (µM)
The reply should be a number in µM, with the unit left off.

Consider the reported IC50 for these binders:
AVSEIQLMHNLGKHLNSMRRVEWLRKELQDV-NH2 [[Ala^1,Arg^19]hPTH(1-31)NH2 Lys^27→Glu]	0.156
AVSEIQLMHNLGKHLNSMRREEWLRKKLQDV-NH2 [[Ala^1,Arg^19]hPTH(1-31)NH2 Val^21→Glu]	0.447
AVSEIQLMHNLGKHLNSMRRVEELRKKLQDV-NH2 [[Ala^1,Arg^19]hPTH(1-31)NH2 Trp^23→Glu]	6.04

Item under review: AVSEIQLMHNLGKHLNSMRRVEWLRKKLQDV-NH2 (also called [Ala^1,Arg^19]PTH(1-31)NH2; [Ala^1,Arg^19]PTH(1-31)) [[Ala^1,Arg^19]hPTH(1-31)NH2] . Reported IC50?
0.038

Item under review: AVSEIQLMHNLGKHLNSMERVEWLRKKLQDV-NH2 [[Ala^1,Arg^19]hPTH(1-31)NH2 Arg^19→Glu] . Reported IC50?
0.125

Item under review: AVSEIQLMHNLGKHLNSMRRVEWLREKLQDV-NH2 [[Ala^1,Arg^19]hPTH(1-31)NH2 Lys^26→Glu] . Reported IC50?
0.06
